Listing of recorded viability at 28.5 h, 10 µM by entry.
- experiment.notes: in vitro
- measurement.conditions: human, hela cells, % viability

COc1cccc(CC(=O)N2C3CCC2CC(O)(c2ccco2)C3)c1 (centres unmarked)    80.5%
CNC(=O)CN1CC[C@H]2NC(=O)c3ccccc3OCC/C=C/C[C@H]2C1    110%
NS(=O)(=O)c1ccc(NC(=O)C2Cc3ccccc3CN2S(=O)(=O)c2ccc(F)cc2)cc1 (centres unmarked)    103%
Cc1ccccc1Nc1nnc(-c2ccc(C(=O)NCCO)cc2)c2ccccc12    86.4%

Now take the following compound into account.
GET /values?readout=viability at 28.5 h, 10 µM&item= O=C(NCCn1ccnc1)C1CC(=O)N(c2cccc(F)c2)C1 (centres unmarked)
105%
